Study Target: Spike protein of SARS-CoV-2 strain EG.5.1 (hCoV-19/France/GES-IPP15954/2023) (SARS-CoV-2)
Measurement Protocol: cell-based or functional assay
Lab note: cut-off is 3 µg/mL. Strictly less in IC50, S-Fuse neutralization of live virus is satisfied. Exactly 3 µg/mL or more is not satisfied.

# Binder, Assigned Category
measured = [
    ("SPK002M C1 antibody (antibody, human IgG1, kappa, V domains shown) VH: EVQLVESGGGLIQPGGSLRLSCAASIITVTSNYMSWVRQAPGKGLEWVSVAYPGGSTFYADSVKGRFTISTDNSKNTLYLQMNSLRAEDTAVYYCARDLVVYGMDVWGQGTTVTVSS VL: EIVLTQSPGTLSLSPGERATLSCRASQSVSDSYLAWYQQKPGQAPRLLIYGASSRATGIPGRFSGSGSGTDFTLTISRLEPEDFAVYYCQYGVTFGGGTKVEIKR", "satisfied"),
    ("SPK002M A2 antibody (antibody, human IgG1, kappa, V domains shown) VH: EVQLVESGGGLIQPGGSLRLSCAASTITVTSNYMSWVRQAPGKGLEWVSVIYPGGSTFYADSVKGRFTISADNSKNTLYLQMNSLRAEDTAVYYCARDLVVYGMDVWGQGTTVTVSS VL: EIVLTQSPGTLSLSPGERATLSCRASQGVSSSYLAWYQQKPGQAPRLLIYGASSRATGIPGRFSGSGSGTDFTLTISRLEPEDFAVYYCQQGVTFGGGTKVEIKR", "satisfied"),
]

Please let me know if SPK002M A4 antibody (antibody, human IgG1, kappa, V domains shown) VH: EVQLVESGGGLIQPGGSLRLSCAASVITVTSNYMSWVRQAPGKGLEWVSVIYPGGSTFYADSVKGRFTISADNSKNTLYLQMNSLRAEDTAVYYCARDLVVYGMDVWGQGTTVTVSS VL: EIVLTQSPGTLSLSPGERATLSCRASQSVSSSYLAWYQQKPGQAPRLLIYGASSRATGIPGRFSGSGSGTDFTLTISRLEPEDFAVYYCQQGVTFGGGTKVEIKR shows IC50, S-Fuse neutralization of live virus below 3 µg/mL.
satisfied

Given the entry SPK002 antibody (parental version Cv2.3194 described in WO 2022/228827) (antibody, V domains shown) VH: EVQLVESGGGLIQPGGSLRLSCAASGITVTSNYMSWVRQAPGKGLEWVSVIYPGGSTFYADSVKGRFTISRDNSKNTLYLQMNSLRAEDTAVYYCARDLVVYGMDVWGQGTTVTVS VL: EIVLTQSPGTLSLSPGERATLSCRASQSVSSSYLAWYQQKPGQAPRLLIYGASSRATGIPGRFSGSGSGTDFTLTISRLEPEDFAIYYCQQGVTFGGGTKVEIK , would its reported IC50, S-Fuse neutralization of live virus be below 3 µg/mL?
not satisfied

is_below(IC50, S-Fuse neutralization of live virus, 3 µg/mL) for SPK002M B2 antibody (antibody, human IgG1, kappa, V domains shown) VH: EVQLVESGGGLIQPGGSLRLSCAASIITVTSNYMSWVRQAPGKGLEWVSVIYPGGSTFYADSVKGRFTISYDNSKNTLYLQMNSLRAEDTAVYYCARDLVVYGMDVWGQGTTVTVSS VL: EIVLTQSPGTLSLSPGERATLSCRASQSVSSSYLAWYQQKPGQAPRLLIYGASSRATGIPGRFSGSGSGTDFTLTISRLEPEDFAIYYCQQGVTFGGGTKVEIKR ?
not satisfied

I'd appreciate it if you could check whether SPK002M A6 antibody (antibody, human IgG1, kappa, V domains shown) VH: EVQLVESGGGLIQPGGSLRLSCAASGITVTSNYMSWVRQAPGKGLEWVSVIYPGGSTFYADSVKGRFTISADNSKNTLYLQMNSLRAEDTAVYYCARDLVVYGMDVWGQGTTVTVSS VL: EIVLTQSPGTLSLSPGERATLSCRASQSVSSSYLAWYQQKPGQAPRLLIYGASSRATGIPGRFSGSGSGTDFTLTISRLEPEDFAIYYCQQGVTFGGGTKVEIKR has IC50, S-Fuse neutralization of live virus smaller than 3 µg/mL.
not satisfied

# strict comparison: is reported IC50, S-Fuse neutralization of live virus < 3 µg/mL? input = SPK002M C3 antibody (antibody, human IgG1, kappa, V domains shown) VH: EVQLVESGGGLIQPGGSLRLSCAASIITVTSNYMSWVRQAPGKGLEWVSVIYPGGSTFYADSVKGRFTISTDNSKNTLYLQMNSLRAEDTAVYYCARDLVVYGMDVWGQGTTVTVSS VL: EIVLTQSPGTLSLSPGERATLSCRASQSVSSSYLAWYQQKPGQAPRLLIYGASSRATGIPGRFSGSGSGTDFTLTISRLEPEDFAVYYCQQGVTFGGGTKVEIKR
not satisfied
